test-system: Aurora B (Homo sapiens)
Construct: His (N)
Sequence (Q96GD4 whole entry): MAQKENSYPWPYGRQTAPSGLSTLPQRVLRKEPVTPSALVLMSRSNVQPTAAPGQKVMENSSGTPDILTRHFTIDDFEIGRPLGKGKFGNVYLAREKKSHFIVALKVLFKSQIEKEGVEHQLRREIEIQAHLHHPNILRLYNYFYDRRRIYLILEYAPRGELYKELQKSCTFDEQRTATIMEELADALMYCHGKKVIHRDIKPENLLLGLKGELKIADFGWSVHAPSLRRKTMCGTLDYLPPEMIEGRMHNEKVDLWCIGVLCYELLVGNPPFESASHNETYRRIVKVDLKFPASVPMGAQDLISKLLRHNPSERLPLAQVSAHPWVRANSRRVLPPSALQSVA
Sequence (Q9NQS7 826-900 partner limits assumed): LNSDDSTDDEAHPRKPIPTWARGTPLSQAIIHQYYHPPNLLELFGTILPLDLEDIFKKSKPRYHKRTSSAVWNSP
procedure-summary: Aurora1 (Aurora-B/INCENP-C3 complex) enzymatic test, NuMA substrate phosphorylation, radioactivity detection
condition: 10 nM Aurora1 (Aurora-B/INCENP-C3), 500 nM NuMA, 1 μM ATP, 30 minutes, 37° C.; read-out: IC 50 Aurora B
Record form. Attribute: IC50. Fill in for each entry.
Expressed in nM, but write only the number.

IC50 reading for Cc1ccc(F)c(NC(=O)Nc2ccc(-c3c(C(N)=O)[nH]c4cnccc34)cc2)c1.O=C(O)C(F)(F)F [Example 5, trifluoroacetate] : 67

IC50 reading for `COc1ccc(C)cc1NC(=O)Nc1ccc(-c2c(C(N)=O)[nH]c3cnccc23)cc1` : 196

IC50 reading for `NC(=O)c1[nH]c2cnccc2c1-c1ccc(NC(=O)Nc2cc(C(F)(F)F)ccc2F)cc1` : 138

IC50 reading for `NC(=O)c1[nH]c2ncccc2c1-c1ccc(NC(=O)Nc2cc(C(F)(F)F)ccc2F)cc1` : 133

* * *

Record form. Attribute: IC50. Fill in for each entry.
test-system: TIE2 (Homo sapiens, UniProt Q02763)
Construct: amino acids of the intracellular domain 776-1124
Sequence (Q02763 776-1124): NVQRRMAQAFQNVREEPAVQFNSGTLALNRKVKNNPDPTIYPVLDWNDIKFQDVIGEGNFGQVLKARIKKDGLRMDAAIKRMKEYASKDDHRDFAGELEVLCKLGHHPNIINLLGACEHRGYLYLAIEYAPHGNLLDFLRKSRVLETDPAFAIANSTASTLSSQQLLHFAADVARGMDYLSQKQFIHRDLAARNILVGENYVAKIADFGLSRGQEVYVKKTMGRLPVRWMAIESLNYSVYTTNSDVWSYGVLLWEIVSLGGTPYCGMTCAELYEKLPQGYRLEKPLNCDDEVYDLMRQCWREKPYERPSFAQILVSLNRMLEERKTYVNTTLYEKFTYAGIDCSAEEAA
procedure-summary: Tie2 phosphorylation of PLC test (GST-Tie2, FlashPlate)
condition: GST-Tie2 intracellular domain 776-1124, GST-PLC substrate, 33P-ATP, one hour at 37° C.; read-out: IC 50 TIE2
# include the unit after the value

IC50 reading for Cc1ccc(F)c(NC(=O)Nc2ccc(-c3c(C(N)=O)[nH]c4cnccc34)cc2)c1.O=C(O)C(F)(F)F [Example 5, trifluoroacetate] : 47 nM

IC50 reading for NC(=O)c1[nH]c2ncccc2c1-c1ccc(NC(=O)Nc2cc(C(F)(F)F)ccc2F)cc1 [Example 7] : 9 nM

IC50 reading for COc1ccc(C)cc1NC(=O)Nc1ccc(-c2c(C(N)=O)[nH]c3cnccc23)cc1 [Example 2] : 21 nM

IC50 reading for NC(=O)c1[nH]c2cnccc2c1-c1ccc(NC(=O)Nc2cc(C(F)(F)F)ccc2F)cc1 [Example 1] : 4 nM

* * *

readout: melting point

melting point reading for `COc1ccc(C)cc1NC(=O)Nc1ccc(-c2c(C(N)=O)[nH]c3ncccc23)cc1` : 327.7 °C

melting point reading for `Cc1ccc(C)c(NC(=O)Nc2ccc(-c3c(C(N)=O)[nH]c4cnccc34)cc2)c1` : 261 °C

melting point reading for `NC(=O)c1[nH]c2ncccc2c1-c1ccc(NC(=O)Nc2ccc(Cl)c(C(F)(F)F)c2)cc1` : 311.1 °C

melting point reading for `NC(=O)c1[nH]c2ncccc2c1-c1ccc(NC(=O)Nc2cc(C(F)(F)F)ccc2F)cc1` : 232 °C

melting point reading for `NC(=O)c1[nH]c2ncccc2c1-c1ccc(NC(=O)Nc2ccc(C(F)(F)F)cc2)cc1` : 296.2 °C

melting point reading for `Cc1cccc(NC(=O)Nc2ccc(-c3c(C(N)=O)[nH]c4ncccc34)cc2)c1` : 266 °C

melting point reading for `Cc1ccc(NC(=O)Nc2ccc(-c3c(C(N)=O)[nH]c4ncccc34)cc2)cc1` : 293 °C

melting point reading for `NC(=O)c1[nH]c2cnccc2c1-c1ccc(NC(=O)Nc2ccc(F)c(C(F)(F)F)c2)cc1` : 201 °C

* * *

Record form. Attribute: melting point. Fill in for each entry.
Expressed in °C, but write only the number.

melting point reading for NC(=O)c1[nH]c2cnccc2c1-c1ccc(NC(=O)Nc2cccc(C(F)(F)F)c2)cc1 [Example 36] : 256

melting point reading for NC(=O)c1[nH]c2cnccc2c1-c1ccc(NC(=O)Nc2ccccc2F)cc1 [Example 47] : 242

melting point reading for NC(=O)c1[nH]c2cnccc2c1-c1ccc(NC(=O)Nc2cccc(F)c2)cc1 [Example 48] : 252

melting point reading for Cc1ccc(F)c(NC(=O)Nc2ccc(-c3c(C(N)=O)[nH]c4cnccc34)cc2)c1.O=C(O)C(F)(F)F [Example 5] : 222

melting point reading for COc1ccc(C(F)(F)F)cc1NC(=O)Nc1ccc(-c2c(C(N)=O)[nH]c3ncccc23)cc1 [Example 32] : 221

melting point reading for COc1ccccc1NC(=O)Nc1ccc(-c2c(C(N)=O)[nH]c3ncccc23)cc1 [Example 10] : 227.1

melting point reading for Cc1ccccc1NC(=O)Nc1ccc(-c2c(C(N)=O)[nH]c3cnccc23)cc1 [Example 56] : 270

melting point reading for COc1ccccc1NC(=O)Nc1ccc(-c2c(C(N)=O)[nH]c3cnccc23)cc1 [Example 34] : 216

Hello, the source for this data is patent US7947706B2, in case you need it.
